Tested on: PIK3C2B
condition: concentration: 1 μM, replicates: in singlicate; n = 1;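 also: KINOMEscan kinase panel screen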
observable: %Inh (%)
Entry rule: numbers only, all in %.

>>> recorded_number("Fc1cc(Cl)ccc1Nc1ccnc2cc(-c3ccc(CN4CCCCC4)o3)ccc12 [GW560116]")
0

Form field: reported %Inh of O=C(Nc1ccc2c(c1)OCO2)NC1CCN(c2ccnc(Nc3ccc(F)cc3)n2)C1 (stereo not drawn) [GSK1379724]
0

Form field: reported %Inh of `COC(=O)c1c(-c2ccccc2)c2cc(C(=O)O)ccc2c(=O)n1Cc1ccccc1`
3

---

Tested on: FER
condition: concentration: 1 μM, replicates: in singlicate; n = 1
%Inh listing for selected compounds.
Entry rule: numbers only, all in %.

Form field: reported %Inh of `Cn1ccc2ncnc(Oc3ccc(Nc4nc5ccccc5[nH]4)cc3)c21`
0

Form field: reported %Inh of `CCn1c(-c2ccccn2)nc2cnccc21`
2

Form field: reported %Inh of `O=C(Nc1n[nH]c2cc(-c3cccc(F)c3F)ccc12)C1CC1`
0

Form field: reported %Inh of `CCn1c(-c2cccnc2O)nc2cnccc21`
0

Form field: reported %Inh of Cc1nnc(-c2ccc3occ(-c4ccc(S(C)=O)cc4)c3c2)[nH]1 (stereo not drawn)
0

---

%Inh listing for selected compounds.
System: FLT1
condition: concentration: 1 μM, replicates: in singlicate; n = 1
Entry rule: numbers only, all in %.

>>> recorded_number("CS(=O)(=O)c1ccc(-c2c(-c3ncn[nH]3)sc(N3CCOCC3)c2C#N)cc1")
13
>>> recorded_number("Cn1cncc1-c1ccc2ncnc(Nc3ccc(OCc4ccccc4)cc3)c2c1 [GW320571]")
27
>>> recorded_number("COc1ccc(CNC(=O)NC2CCN(c3ccnc(Nc4cc(OC)c(OC)c(OC)c4)n3)C2)cc1 (centres unmarked) [GSK1379748]")
20

Form field: reported %Inh of COc1ccc(C2=C(Nc3cccc(C(=O)O)c3)C(=O)NC2=O)cc1 [SB-390765]
4

Form field: reported %Inh of Fc1cc(Cl)ccc1Nc1ccnc2cc(-c3ccc(CN4CCCCC4)o3)ccc12 [GW560116]
15

---

Test system: NEK9
condition: concentration: 1 μM, replicates: in singlicate; n = 1
%Inh listing for selected molecules.
Entry rule: numbers only, all in %.

These solved cases illustrate the format of a correct answer.
>>> recorded_number("Cn1ccc2ncnc(Oc3ccc(NC(=O)Nc4ccccc4)cc3)c21")
0
>>> recorded_number("Cc1cc(NCC(c2ccccc2)c2ccccc2)nc(NCc2ccc(C(F)(F)F)cc2)n1 [GW497681]")
0
>>> recorded_number("Cl.O=C(Nc1cccc(-c2nn3ncccc3c2-c2ccnc(Nc3cccnc3)n2)c1)c1c(F)cccc1F [GSK312879]")
0

Form field: reported %Inh of Cc1cccc(-c2nc(Nc3cccc(C(N)=O)c3)c3ccccc3n2)n1 [GW876019]
15

Form field: reported %Inh of Nc1nc(-c2nccs2)c(-c2ccnc3ccccc23)s1 [GW693542]
12

Form field: reported %Inh of CCCc1ccc(S(=O)(=O)NC2CCN(c3ccnc(Nc4ccc(F)cc4)n3)C2)cc1 (stereo not shown) [GSK1379715]
0

Form field: reported %Inh of Cl.Oc1ccc(-c2nc(-c3ccccc3)[nH]c2-c2ccncc2)cc1 [SB-428218]
0

Form field: reported %Inh of COc1cccc(-c2cc(-c3c[nH]nc3-c3ccccn3)ccn2)c1 [GW680338]
1

Form field: reported %Inh of COc1ccc2nc(-c3cccc(C)n3)nc(Nc3ccncc3)c2c1 [GSK204919]
0

Form field: reported %Inh of O=S(=O)(c1ccc(-c2ccnc3[nH]ccc23)cc1)N1CCCC1 [GSK846226]
28

Form field: reported %Inh of Cl.NC(=O)c1cccc(Nc2nccc(Nc3ccc(Oc4cccc(Cl)c4)c(Cl)c3)n2)c1 [GW659008]
3

Form field: reported %Inh of `Cc1cccc(-c2nc(-c3ccc(S(C)(=O)=O)cc3)sc2-c2ccnc(NCCc3ccccc3)c2)c1`
0

Form field: reported %Inh of Cc1ccc(NC(=O)Nc2cc(C(C)(C)C)nn2-c2ccccc2)cc1 [GSK1014915]
0

Form field: reported %Inh of Cc1c(O)cccc1Nc1ccnc2ccc(C(F)(F)F)cc12.Cl [GW466413]
0
